Below are IC50 values for Tyrosine-protein kinase JAK3 (Homo sapiens) collected from several publications.
Molecular target: Tyrosine-protein kinase JAK3 (Homo sapiens)
Sequence (P52333 whole entry): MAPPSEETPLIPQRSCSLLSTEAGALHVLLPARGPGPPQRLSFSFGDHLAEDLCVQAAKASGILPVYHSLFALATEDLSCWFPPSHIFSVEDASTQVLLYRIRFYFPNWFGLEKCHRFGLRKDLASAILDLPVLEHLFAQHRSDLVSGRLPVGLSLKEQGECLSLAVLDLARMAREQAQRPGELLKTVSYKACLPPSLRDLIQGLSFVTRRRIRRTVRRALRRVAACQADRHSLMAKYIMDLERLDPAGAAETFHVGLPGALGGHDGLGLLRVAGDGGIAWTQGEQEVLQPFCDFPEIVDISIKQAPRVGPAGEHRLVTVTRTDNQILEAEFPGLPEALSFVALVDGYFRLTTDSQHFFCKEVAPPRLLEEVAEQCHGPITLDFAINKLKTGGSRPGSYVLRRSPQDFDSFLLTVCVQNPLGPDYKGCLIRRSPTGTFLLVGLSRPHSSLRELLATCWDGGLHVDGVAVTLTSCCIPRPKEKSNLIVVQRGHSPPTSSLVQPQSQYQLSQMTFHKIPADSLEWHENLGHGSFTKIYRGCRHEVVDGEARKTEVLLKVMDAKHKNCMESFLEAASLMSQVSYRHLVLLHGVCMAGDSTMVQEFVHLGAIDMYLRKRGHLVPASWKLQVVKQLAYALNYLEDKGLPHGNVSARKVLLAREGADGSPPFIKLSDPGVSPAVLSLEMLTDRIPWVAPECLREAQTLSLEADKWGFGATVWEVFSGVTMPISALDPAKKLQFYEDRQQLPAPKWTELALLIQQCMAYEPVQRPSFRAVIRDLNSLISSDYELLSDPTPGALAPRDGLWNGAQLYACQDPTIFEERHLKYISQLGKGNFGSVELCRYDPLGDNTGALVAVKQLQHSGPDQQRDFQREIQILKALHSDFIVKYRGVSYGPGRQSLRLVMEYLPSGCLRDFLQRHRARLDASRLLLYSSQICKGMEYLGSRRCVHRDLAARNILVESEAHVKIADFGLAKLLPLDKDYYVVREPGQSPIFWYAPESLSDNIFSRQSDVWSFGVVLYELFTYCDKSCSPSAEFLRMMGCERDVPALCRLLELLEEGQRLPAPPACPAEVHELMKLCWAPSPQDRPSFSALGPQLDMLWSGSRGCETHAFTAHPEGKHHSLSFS
Answer format: numeric, nM implied, no suffix.

Recorded IC50, per entry:
>>> measured_value("Cc1cnc(Nc2ccc(CNC(=O)C3CC3)cc2)nc1-c1cnn(C(C)C)c1")
156
>>> measured_value("Cn1cc(Nc2cc(-c3cccc(NC(=O)CNC(=O)CC#N)c3)ncn2)cn1")
95

Okay, next one:
Determine from records and report IC50 for "Cc1cnc(Nc2ccc(-n3ccnc3)cc2)nc1-c1cc2c(o1)CCN(S(C)(=O)=O)C2"
91.3

* * *

Below are IC50 values for Tyrosine-protein kinase JAK3 (Homo sapiens) collected from several publications.

Recorded IC50, per entry:
>>> measured_value("Cn1c(-c2c[nH]nn2)nc(-c2ccc(F)cc2)c1-c1ccncc1")
"> 100 µM"
>>> measured_value("Cn1c(-c2cn(-c3ccc(C(=O)O)cc3)nn2)nc(-c2ccc(F)cc2)c1-c1ccncc1")
"> 100 µM"
>>> measured_value("CNc1ncc(C(=O)Nc2cc(C(=O)Nc3cccc(C(F)(F)F)c3F)ccc2C)c(NC)n1")
"> 25 µM"
>>> measured_value("Cn1cc(-c2cnc(N)c3c(-c4ccc(Oc5ccccc5)cc4)csc23)cn1")
"> 10 µM"
>>> measured_value("Cc1ccc(C(=O)Nc2cccc(C(F)(F)F)c2)cc1C(=O)Nc1cnc(N)nc1")
"> 25 µM"

Determine from records and report IC50 for "CN(c1ccccc1)c1cc(NCc2ccccc2)c(C(N)=O)cn1"
> 1 µM
